// data source = paper PMC5681660

Target: UniProt:Q14973
Sequence (Q14973 1-349): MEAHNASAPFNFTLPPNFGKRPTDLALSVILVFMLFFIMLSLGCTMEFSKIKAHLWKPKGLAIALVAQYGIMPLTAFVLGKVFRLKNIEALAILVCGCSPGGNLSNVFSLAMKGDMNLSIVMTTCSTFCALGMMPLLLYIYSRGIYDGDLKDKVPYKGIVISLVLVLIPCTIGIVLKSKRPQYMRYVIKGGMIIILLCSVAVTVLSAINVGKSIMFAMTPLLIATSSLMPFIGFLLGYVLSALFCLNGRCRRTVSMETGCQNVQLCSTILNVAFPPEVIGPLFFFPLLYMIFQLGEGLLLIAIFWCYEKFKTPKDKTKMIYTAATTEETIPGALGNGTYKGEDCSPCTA
Experiment: Screening taurocholate uptake assay (96-well, [14C]taurocholate, 10 µM drug)
Conditions: combined ranking from functional and binding screening assays
Counter-ions that a name gives are not always drawn.
observed.property: Ranking score

1. CC1(C)[C@H](C(=O)O)N2C(=O)C[C@H]2S1(=O)=O : 399.332
2. CCN[C@@H](C)Cc1cccc(C(F)(F)F)c1 [Dexfenfluramine hydrochloride] : 401.597
3. CC(C)(C)NC(=O)[C@H]1CC[C@H]2[C@@H]3CC[C@H]4NC(=O)C=C[C@]4(C)[C@H]3CC[C@]12C [Finasteride] : 406.586
